Molecular target: PD-1/PD-L1 interaction (Homo sapiens, UniProt Q9NZQ7)
Sequence (Q9NZQ7 19-290): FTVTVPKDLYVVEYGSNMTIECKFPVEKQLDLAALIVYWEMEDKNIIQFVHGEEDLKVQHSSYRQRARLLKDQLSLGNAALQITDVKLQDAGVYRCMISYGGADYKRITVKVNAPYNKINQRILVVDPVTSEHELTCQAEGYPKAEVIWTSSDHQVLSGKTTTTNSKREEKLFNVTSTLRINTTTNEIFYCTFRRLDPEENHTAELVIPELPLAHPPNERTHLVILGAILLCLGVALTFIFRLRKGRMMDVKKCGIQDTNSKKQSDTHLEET
Experiment: PD-1/PD-L1 blockage cell-based bioassay (Jurkat NFAT luciferase / CHO-PDL1 co-culture)
Settings: Jurkat NFAT cells co-cultured with CHO-PDL1 cells, 6 h, luminescence
pIC50: −log10 of the molar value.
readout_label: pIC50

Some solved entries appear below for comparison.
molecular_string	pIC50
COc1cc(-n2ncc3c(-c4cccc(-c5nc6cc(CN7CC[C@@H](C(=O)O)C7)cc(C#N)c6o5)c4C)cccc32)cc(OC)c1CN1CC[C@@H](O)C1	> 6.70
COc1cc(-n2ncc3c(-c4cccc(-c5ccc(CN[C@H]6C[C@@H](O)C6)c(OC)n5)c4Cl)cccc32)cc(OC)c1CN[C@@H](CO)C(N)=O	5.70 to 6.70

Please find the next compound below.
[ask] Checklist item: pIC50 tested on PD-1/PD-L1 interaction (Homo sapiens, UniProt Q9NZQ7), entry `COc1cc(-n2ncc3c(-c4cccc(-c5ccc(CN6CC(C(C)(C)O)C6)c(OC)n5)c4Cl)cccc32)cc(OC)c1CN1CC2(CCC(=O)N2)C1` , value?
[reply] 5.70 to 6.70

Where do these numbers come from? They come from patent US20240336601A1.
